# Procedure Summary: Selectivity index, ratio of IC50 for hTERT-BJ cells to IC50 for human PANC1 cells
# Type: toxicity
# Study Conditions: hTERT-BJ cells versus PANC1 cells, read-out: Ratio IC50
Field: selectivity ratio. Provide a value for each of the molecules that follow.

# count of solved cases: 4
Tell me the measured selectivity ratio of "CCOc1ccc2nc(Cl)c(/C=N/NC(=O)c3cc4cc(Br)ccc4oc3=O)cc2c1" , please.
> 2.94

Tell me the measured selectivity ratio of "CCOc1ccc2nc(Cl)c(/C=N/NC(=O)c3cc4ccc(O)cc4oc3=O)cc2c1" , please.
> 388

Tell me the measured selectivity ratio of "CCOc1ccc2nc(Cl)c(/C=N/NC(=O)c3cc4cc([N+](=O)[O-])ccc4oc3=O)cc2c1" , please.
> 4.75

Tell me the measured selectivity ratio of "O=C(N/N=C/c1cccnc1)c1cc2ccc(O)cc2oc1=O" , please.
> 19.8

Your task in this section: give selectivity ratio for each listed record.
1. CCOc1ccc(NC(=O)c2cc3ccc(O)cc3oc2=O)cc1
2. COc1cccc2c1C(=O)c1c(O)c3c(c(O)c1C2=O)C[C@@](O)(C(=O)CO)C[C@@H]3O[C@H]1C[C@H](N)[C@H](O)[C@H](C)O1
3. CCOc1ccc(NC(=O)c2cc3cc(Br)ccc3oc2=O)cc1

> 3.5
< 0.91
> 2.97

---

# Tested on: TERT-RPE1
# Procedure Summary: Cytotoxicity against hTERT-RPE1 cells at 6.25 uM after 48 hrs by resazurin dye-based fluorescence assay relative to control
# Format: cell-based
# Study Conditions: human, tert-rpe1, 48 h
Measurement Kind: Activity (%)
Give bare numbers, in %.

# count of solved cases: 6
Tell me the measured Activity of "O=C(N/N=C/c1cccnc1)c1cc2cc([N+](=O)[O-])ccc2oc1=O" , please.
1.1

Tell me the measured Activity of "CCOc1ccc(NC(=O)c2cc3ccccc3oc2=O)cc1" , please.
7.48

Tell me the measured Activity of "O=C(N/N=C/c1cccnc1)c1cc2ccccc2oc1=O" , please.
7.46

Tell me the measured Activity of "O=C(N/N=C/c1cc2ccccc2nc1Cl)c1cc2cc(Br)ccc2oc1=O" , please.
0.94

Tell me the measured Activity of "O=C(N/N=C/c1cccnc1)c1cc2cc(Br)ccc2oc1=O" , please.
6.64

Tell me the measured Activity of "Cc1noc(NS(=O)(=O)c2ccc(NC(=O)c3cc4cc([N+](=O)[O-])ccc4oc3=O)cc2)c1C" , please.
1.27

Your task in this section: give Activity for each listed record.
1. Cc1noc(NS(=O)(=O)c2ccc(NC(=O)c3cc4cc(Br)ccc4oc3=O)cc2)c1C
2. CCOc1ccc2nc(Cl)c(/C=N/NC(=O)c3cc4ccc(O)cc4oc3=O)cc2c1
3. O=C(N/N=C/c1cccnc1)c1cc2ccc(O)cc2oc1=O
4. O=C(N/N=C/c1ccncc1)c1cc2cc([N+](=O)[O-])ccc2oc1=O

[1.84, 3.51, 8.83, 6.97]

---

Field: Activity. Provide a value for each of the compounds that follow.
# Tested on: TERT-RPE1
# Procedure Summary: Cytotoxicity against hTERT-RPE1 cells at 12.50 uM after 48 hrs by resazurin dye-based fluorescence assay relative to control
# Format: cell-based
# Study Conditions: human, tert-rpe1, 48 h, 12.5 µM
Numbers only, in %.

Tell me the measured Activity of "O=C(N/N=C/c1ccncc1)c1cc2ccccc2oc1=O" , please.
4.08

Your task in this section: give Activity for each listed record.
1. Cc1noc(NS(=O)(=O)c2ccc(NC(=O)c3cc4cc(Br)ccc4oc3=O)cc2)c1C
2. O=C(N/N=C/c1cc2ccccc2nc1Cl)c1cc2cc([N+](=O)[O-])ccc2oc1=O
3. O=C(N/N=C/c1ccncc1)c1cc2cc(Br)ccc2oc1=O
4. O=C(N/N=C/c1cc2ccccc2nc1Cl)c1cc2cc(Br)ccc2oc1=O
5. O=C(N/N=C/c1ccncc1)c1cc2cc([N+](=O)[O-])ccc2oc1=O
6. CCOc1ccc2nc(Cl)c(/C=N/NC(=O)c3cc4ccc(O)cc4oc3=O)cc2c1

[10.36, 0.73, 17.16, 12.73, 10.1, 8.35]

Your task in this section: give Activity for each listed record.
1. O=C(N/N=C/c1cccnc1)c1cc2cc(Br)ccc2oc1=O
2. CCOc1ccc(NC(=O)c2cc3ccccc3oc2=O)cc1
3. CCOc1ccc2nc(Cl)c(/C=N/NC(=O)c3cc4cc(Br)ccc4oc3=O)cc2c1

[12.55, 12.77, 12.4]

---

# Test system: TERT-RPE1
# Procedure Summary: Cytotoxicity against hTERT-RPE1 cells after 48 hrs by resazurin dye-based fluorescence assay
# Assay type: cell-based
# Study Conditions: Homo sapiens, RPE-1, 48 h
pIC50: −log10 of the molar value.
Measurement Kind: pIC50

# count of solved cases: 5
Tell me the measured pIC50 of "O=C(N/N=C/c1ccncc1)c1cc2cc(Br)ccc2oc1=O" , please.
< 4.30

Tell me the measured pIC50 of "COc1cccc2c1C(=O)c1c(O)c3c(c(O)c1C2=O)C[C@@](O)(C(=O)CO)C[C@@H]3O[C@H]1C[C@H](N)[C@H](O)[C@H](C)O1" , please.
> 5.20

Tell me the measured pIC50 of "CCOc1ccc2nc(Cl)c(/C=N/NC(=O)c3cc4cc(Br)ccc4oc3=O)cc2c1" , please.
< 4.30

Tell me the measured pIC50 of "O=C(N/N=C/c1cc2ccccc2nc1Cl)c1cc2cc([N+](=O)[O-])ccc2oc1=O" , please.
< 4.30

Tell me the measured pIC50 of "Cc1noc(NS(=O)(=O)c2ccc(NC(=O)c3cc4cc(Br)ccc4oc3=O)cc2)c1C" , please.
< 4.30

Your task in this section: give pIC50 for each listed record.
1. O=C(N/N=C/c1ccncc1)c1cc2cc([N+](=O)[O-])ccc2oc1=O
2. O=C(N/N=C/c1cccnc1)c1cc2ccccc2oc1=O

1. < 4.30
2. < 4.30

---

# Procedure Summary: Selectivity index, ratio of IC50 for hTERT-BJ cells to IC50 for human CCRF-CEM cells
# Format: toxicity
# Study Conditions: hTERT-BJ cells versus CCRF-CEM cells, read-out: Ratio IC50
Measurement Kind: selectivity ratio

Your task in this section: give selectivity ratio for each listed record.
1. CCOc1ccc2nc(Cl)c(/C=N/NC(=O)c3cc4ccc(O)cc4oc3=O)cc2c1
2. COc1cccc2c1C(=O)c1c(O)c3c(c(O)c1C2=O)C[C@@](O)(C(=O)CO)C[C@@H]3O[C@H]1C[C@H](N)[C@H](O)[C@H](C)O1
3. CCOc1ccc(NC(=O)c2cc3ccccc3oc2=O)cc1
4. O=C(N/N=C/c1cc2ccccc2nc1Cl)c1cc2cc(Br)ccc2oc1=O

1. > 2.92
2. < 5.95
3. > 2.79
4. > 6.71

---

# Test system: HepG2
# Procedure Summary: Antiproliferative activity against human HepG2 cells after 48 hrs by resazurin dye-based fluorescence assay
# Format: functional, cell-based
# Study Conditions: HepG2, 48 h
Measurement Kind: IC50 (µM)
Give bare numbers, in µM.

# count of solved cases: 4
Tell me the measured IC50 of "CCOc1ccc2nc(Cl)c(/C=N/NC(=O)c3cc4cc(Br)ccc4oc3=O)cc2c1" , please.
29

Tell me the measured IC50 of "O=C(N/N=C/c1cc2ccccc2nc1Cl)c1cc2cc(Br)ccc2oc1=O" , please.
9.42

Tell me the measured IC50 of "Cc1noc(NS(=O)(=O)c2ccc(NC(=O)c3cc4ccccc4oc3=O)cc2)c1C" , please.
24

Tell me the measured IC50 of "Cc1noc(NS(=O)(=O)c2ccc(NC(=O)c3cc4cc([N+](=O)[O-])ccc4oc3=O)cc2)c1C" , please.
15

Please find the next compound below.
Tell me the measured IC50 of "CCOc1ccc(NC(=O)c2cc3cc(Br)ccc3oc2=O)cc1" , please.
37

---

Field: selectivity ratio. Provide a value for each of the compounds that follow.
# Procedure Summary: Selectivity index, ratio of IC50 for hTERT-RPE1 cells to IC50 for human HepG2 cells
# Format: toxicity
# Study Conditions: hTERT-RPE1 cells versus HepG2 cells, read-out: Ratio IC50

# count of solved cases: 5
Tell me the measured selectivity ratio of "CCOc1ccc2nc(Cl)c(/C=N/NC(=O)c3cc4cc(Br)ccc4oc3=O)cc2c1" , please.
> 1.72

Tell me the measured selectivity ratio of "O=C(N/N=C/c1ccncc1)c1cc2cc(Br)ccc2oc1=O" , please.
> 10.2

Tell me the measured selectivity ratio of "CCOc1ccc(NC(=O)c2cc3cc(Br)ccc3oc2=O)cc1" , please.
> 1.35

Tell me the measured selectivity ratio of "O=C(N/N=C/c1ccncc1)c1cc2cc([N+](=O)[O-])ccc2oc1=O" , please.
> 3.15

Tell me the measured selectivity ratio of "CCOc1ccc(NC(=O)c2cc3ccccc3oc2=O)cc1" , please.
> 4.83

Your task in this section: give selectivity ratio for each listed record.
1. COc1cccc2c1C(=O)c1c(O)c3c(c(O)c1C2=O)C[C@@](O)(C(=O)CO)C[C@@H]3O[C@H]1C[C@H](N)[C@H](O)[C@H](C)O1
2. CCOc1ccc2nc(Cl)c(/C=N/NC(=O)c3cc4cc([N+](=O)[O-])ccc4oc3=O)cc2c1

< 1.15
> 2.77

Your task in this section: give selectivity ratio for each listed record.
1. O=C(N/N=C/c1cc2ccccc2nc1Cl)c1cc2cc(Br)ccc2oc1=O
2. Cc1noc(NS(=O)(=O)c2ccc(NC(=O)c3cc4ccc(O)cc4oc3=O)cc2)c1C

["> 5.31", "> 1.29"]
